Values from patent US20080200403A1

Would you mind telling me the reported inhibition at 10 µM of each entry?
- System: IL-1α
- measurement.notes: Inhibition of IL-1 production by stimulated human peripheral blood leukocytes in vitro
- Format: cell-based
- assay.conditions: Homo sapiens, Leukocyte, PBL, LPS stimulated, compound 10 μM; read-out: Percentage of inhibition of IL-1α production
One number for each entry, in %.

| molecule | target.entity | inhibition at 10 µM [%] |
| --- | --- | --- |
| CC[C@H]1OC(=O)[C@H](C)[C@@H](O[C@H]2C[C@@](C)(OC)[C@@H](O)[C@H](C)O2)[C@H](C)[C@@H](O[C@@H]2O[C@H](C)C[C@H](N(C)C)[C@H]2O)[C@](C)(O)C[C@@H](C)CN(C(=O)Nc2ccc(C(F)(F)F)cc2)[C@H](C)[C@@H](O)[C@]1(C)O | IL-1α | 45 |
| CC[C@H]1OC(=O)[C@H](C)[C@@H](O[C@H]2C[C@@](C)(OC)[C@@H](O)[C@H](C)O2)[C@H](C)[C@@H](O[C@@H]2O[C@H](C)C[C@H](N(C)C)[C@H]2O)[C@](C)(O)C[C@@H](C)CN(C(=S)Nc2cccc(C(F)(F)F)c2)[C@H](C)[C@@H](O)[C@]1(C)O | IL-1α | 74 |
| CC[C@H]1OC(=O)[C@H](C)[C@@H](O[C@H]2C[C@@](C)(OC)[C@@H](O)[C@H](C)O2)[C@H](C)[C@@H](O[C@@H]2O[C@H](C)C[C@H](N(C)C)[C@H]2O)[C@](C)(O)C[C@@H](C)CN(C(=O)NC(C)c2cccc3ccccc23)[C@H](C)[C@@H](O)[C@]1(C)O (stereo partly shown) | IL-1α | 52 |

Provide inhibition at 10 µM value for the following molecule: `CC[C@H]1OC(=O)[C@H](C)[C@@H](O[C@H]2C[C@@](C)(OC)[C@@H](O)[C@H](C)O2)[C@H](C)[C@@H](O[C@@H]2O[C@H](C)C[C@H](N(C)C)[C@H]2O)[C@](C)(O)C[C@@H](C)CN(C(=S)Nc2ccccc2F)[C@H](C)[C@@H](O)[C@]1(C)O`
41
